Exercise: state measured protein stability index for each of the variants provided.
B1: SOAT1 (parent)
chain: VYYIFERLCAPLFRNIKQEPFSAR

Variants of: B1
protocol_details: protein stability index of a GFP-peptide fusion (GPS, HEK-293T) (PSI 1-6); higher = more stable;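 further: lentivirally expressed fusions sorted by FACS into six bins by GFP to DsRed ratio, PSI derived from sequencing read proportions per bin multiplied by bin number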
test_conditions: c terminus: a fixed tail appended

Would you please look over these solved cases?
R14D
3.52
Q18V
1.88

API: the following record is the query input.
Data request: Give the measured protein stability index for Q18N
Data returned: 1.52
